Assay: Solubility of peptides in water
Type: physicochemical
Where a SMILES comes first, the peptide text is derived from it. [ ]: non-standard residue; d: D form. Hyp = O=C(O)[C@@H]1C[C@@H](O)CN1
Measured Attribute: solubility

Molecule: CC(=O)N1C[C@H](O)C[C@H]1C(=O)N1C[C@H](O)C[C@H]1C(=O)N[C@@H](CO)C(=O)N[C@@H](CC(C)C)C(=O)N[C@@H](CO)C(=O)N[C@@H](CC(C)C)C(=O)N[C@@H](CO)C(=O)N[C@@H](CC(C)C)C(=O)N[C@@H](CO)C(=O)N[C@@H](CC(C)C)C(=O)N[C@@H](CO)C(=O)N[C@@H](CC(C)C)C(=O)N[C@@H](CO)C(=O)N[C@@H](CC(C)C)C(=O)N1C[C@H](O)C[C@H]1C(=O)N1C[C@H](O)C[C@H]1C(N)=O [Peptide O2, Ac-OOSLSLSLSLSLSLOO-CONH2] (Ac-[Hyp][Hyp]SLSLSLSLSLSL[Hyp][Hyp]-NH2)
Result: < 500 µg/mL

# ---- query molecule ----
Qu. Entry CC(=O)N1C[C@H](O)C[C@H]1C(=O)N[C@@H](CO)C(=O)N[C@@H](CC(C)C)C(=O)N[C@@H](CO)C(=O)N[C@@H](CC(C)C)C(=O)N[C@@H](CO)C(=O)N[C@@H](CC(C)C)C(=O)N[C@@H](CO)C(=O)N[C@@H](CC(C)C)C(=O)N[C@@H](CO)C(=O)N[C@@H](CC(C)C)C(=O)N[C@@H](CO)C(=O)N[C@@H](CC(C)C)C(=O)N1C[C@H](O)C[C@H]1C(N)=O [Peptide O1, Ac-OSLSLSLSLSLSLO-CONH2] (Ac-[Hyp]SLSLSLSLSLSL[Hyp]-NH2) : reported solubility = ?
Ans. < 500 µg/mL
